# Target Or System: CYP2B6 (Homo sapiens, UniProt P20813)
# Assay Summary: CYP inhibition in human liver microsomes
# Settings: human, human liver microsomes, probe bupropion
Endpoint: activity at 20 min, 5 µM
Answer as a quantity: numeral, then unit.

[in] Give its activity at 20 min, 5 µM value. Item: CC(=O)N1CCN(c2ccc(OCC3COC(Cn4ccnc4)(c4ccc(Cl)cc4Cl)O3)cc2)CC1 (stereo not shown)
[out] 49.1%

----------
# Target Or System: CYP1A2 (Homo sapiens)
# Assay Summary: in vitro
# Settings: microsomes
Endpoint: activity at 20 min, 10 µM (%)
The reply should be a number in %, with the unit left off.

[in] Give its activity at 20 min, 10 µM value. Item: "Cc1nc2c([nH]1)c(=O)n(C)c(=O)n2Cc1ccco1"
[out] 49

----------
# Test system: CYP2B6
# Assay Summary: CYP induction, mRNA, primary cultured human hepatocytes
# Settings: primary cultured human hepatocytes, Fold Induction (CYP2B6 mRNA expression), hepatocyte Lot 336, 1 µM
Endpoint: fold induction at 48 h, 1 µM

[in] Lab note: need fold induction at 48 h, 1 µM with CYP2B6 for entry CCc1cc(Cl)c(OC)c(N2CCN(CC(O)CCNC(=O)c3cc4ccccc4[nH]3)CC2)c1 (stereo not shown) , please look it up.
[out] 1.3

----------
# Assay Summary: Metabolic stability in liver microsomes
# Settings: monkey, liver microsomes, pH 7.4
Endpoint: remaining at 0 h, 10 μM

[in] Give its remaining at 0 h, 10 μM value. Item: CCc1cc(Cl)c(OC)c(N2CCN(CC(O)CCNC(=O)c3cc4ccccc4[nH]3)CC2)c1 (stereo not shown)
[out] 100%

----------
# Assay Summary: Metabolic stability in liver microsomes
# Settings: rat, microsomes, pH 7.4
Endpoint: remaining at 1 h, 10 μM (%)
The reply should be a number in %, with the unit left off.

[in] Give its remaining at 1 h, 10 μM value. Item: Cc1ncc2n1-c1ccc(Cl)cc1C(c1ccccc1F)=NC2 [Midazolam, reference compound]
[out] 0.4

----------
# Target Or System: CYP3A4 (Homo sapiens)
# Sequence (P08684 2-503): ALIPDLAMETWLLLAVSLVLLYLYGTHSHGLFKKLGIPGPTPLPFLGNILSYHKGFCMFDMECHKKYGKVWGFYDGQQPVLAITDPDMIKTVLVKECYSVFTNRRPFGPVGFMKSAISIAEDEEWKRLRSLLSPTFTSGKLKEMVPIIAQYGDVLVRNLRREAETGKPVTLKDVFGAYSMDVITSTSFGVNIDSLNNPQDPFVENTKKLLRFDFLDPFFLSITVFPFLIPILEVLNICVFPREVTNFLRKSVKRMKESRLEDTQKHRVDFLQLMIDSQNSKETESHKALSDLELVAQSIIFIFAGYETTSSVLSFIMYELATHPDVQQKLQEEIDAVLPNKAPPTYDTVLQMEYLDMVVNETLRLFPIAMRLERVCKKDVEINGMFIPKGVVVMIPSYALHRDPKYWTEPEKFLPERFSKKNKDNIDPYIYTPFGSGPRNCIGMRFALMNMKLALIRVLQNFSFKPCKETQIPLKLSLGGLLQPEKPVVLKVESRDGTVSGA
# Assay Summary: in vitro
# Settings: microsomes, CYP activity (% of Control) 3A4 (Midazolam)
Endpoint: activity at 20 min, 60 µM (%)
The reply should be a number in %, with the unit left off.

[in] Lab note: need activity at 20 min, 60 µM with CYP3A4 (Homo sapiens) for entry CCc1cc(Cl)c(OC)c(N2CCN(CC(O)CCNC(=O)c3cc4ccccc4[nH]3)CC2)c1 (stereo not shown) [R-VK4-116] , please look it up.
[out] 92.6

----------
# Assay Summary: Plasma protein binding, Sephadex G-25 gel filtration
# Format: in vitro ADME, human
# Settings: human, plasma, human plasma, nominal 0.5 μM; read-out: % Bound, Mean ± SD (converted)
Endpoint: fraction unbound at 2 h, 0.5 μM
Response field accepts a number only; no unit should be typed.

[in] Give its fraction unbound at 2 h, 0.5 μM value. Item: CCc1cc(Cl)c(OC)c(N2CCN(CC(O)CCNC(=O)c3cc4ccccc4[nH]3)CC2)c1 (stereo not shown)
[out] 0.028

----------
# Target Or System: CYP2B6 (Homo sapiens, UniProt P20813)
# Sequence (P20813 1-491): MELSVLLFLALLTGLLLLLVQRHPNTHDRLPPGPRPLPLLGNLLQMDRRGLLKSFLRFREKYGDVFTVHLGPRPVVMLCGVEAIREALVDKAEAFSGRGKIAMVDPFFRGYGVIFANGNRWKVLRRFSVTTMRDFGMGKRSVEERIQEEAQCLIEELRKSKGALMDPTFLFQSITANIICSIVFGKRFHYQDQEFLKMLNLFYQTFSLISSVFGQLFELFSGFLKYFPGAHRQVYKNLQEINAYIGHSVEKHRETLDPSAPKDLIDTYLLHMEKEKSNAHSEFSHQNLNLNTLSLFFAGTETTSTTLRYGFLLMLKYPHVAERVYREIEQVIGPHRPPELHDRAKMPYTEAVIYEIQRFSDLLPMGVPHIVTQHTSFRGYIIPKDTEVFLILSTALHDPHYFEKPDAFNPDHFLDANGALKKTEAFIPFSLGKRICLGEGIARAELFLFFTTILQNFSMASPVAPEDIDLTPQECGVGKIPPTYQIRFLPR
# Assay Summary: CYP inhibition in human liver microsomes
# Settings: human, human liver microsomes, probe bupropion
Recorded activity at 20 min, 10 µM by entry

CCc1cc(Cl)c(OC)c(N2CCN(CC(O)CCNC(=O)c3cc4ccccc4[nH]3)CC2)c1 (stereo not drawn) [R-VK4-116]; 97.5%
Cc1nc2c([nH]1)c(=O)n(C)c(=O)n2Cc1ccco1 [Furafylline]; 97.3%

Now for the compound whose activity at 20 min, 10 µM we want.
[in] Give its activity at 20 min, 10 µM value. Item: CC(C)(O)c1ccccc1CC[C@@H](SCC1(CC(=O)O)CC1)c1cccc(/C=C/c2ccc3ccc(Cl)cc3n2)c1 [Montelukast]
[out] 90.5%

----------
# Test system: CYP1A2 mRNA
# Assay Summary: CYP induction, mRNA, primary cultured human hepatocytes
# Type: in vitro ADME
# Settings: Lot 336, 3 μM, read-out: CYP1A2 mRNA Fold Induction (fold of vehicle control)
Endpoint: fold induction at 48 h, 3 µM
Response field accepts a number only; no unit should be typed.

[in] Give its fold induction at 48 h, 3 µM value. Item: CCc1cc(Cl)c(OC)c(N2CCN(CC(O)CCNC(=O)c3cc4ccccc4[nH]3)CC2)c1 (stereo not shown) [R-VK4-116]
[out] 1.9

----------
# Target Or System: CYP2C9 (Homo sapiens, UniProt P11712)
# Sequence (P11712 whole entry): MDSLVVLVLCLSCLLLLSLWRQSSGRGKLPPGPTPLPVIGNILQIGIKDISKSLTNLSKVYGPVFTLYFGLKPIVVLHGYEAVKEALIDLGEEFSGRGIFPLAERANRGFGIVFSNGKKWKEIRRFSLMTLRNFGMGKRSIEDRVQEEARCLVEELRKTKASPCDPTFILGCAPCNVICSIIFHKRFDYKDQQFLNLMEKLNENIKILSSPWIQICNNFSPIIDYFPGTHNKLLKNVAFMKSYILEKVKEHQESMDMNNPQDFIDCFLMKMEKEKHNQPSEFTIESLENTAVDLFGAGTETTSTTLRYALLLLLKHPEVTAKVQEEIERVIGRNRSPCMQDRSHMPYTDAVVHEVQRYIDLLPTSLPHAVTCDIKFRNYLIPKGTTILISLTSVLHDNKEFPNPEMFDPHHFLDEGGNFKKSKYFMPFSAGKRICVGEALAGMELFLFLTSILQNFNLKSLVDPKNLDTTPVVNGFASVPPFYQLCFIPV
# Assay Summary: CYP inhibition in human liver microsomes
# Settings: human, microsomes
Endpoint: activity at 20 min, 10 µM (%)
The reply should be a number in %, with the unit left off.

[in] Give its activity at 20 min, 10 µM value. Item: S=P(N1CC1)(N1CC1)N1CC1 [ThioTEPA]
[out] 92.9

----------
Recorded activity at 20 min, 3 µM by entry
# Target Or System: CYP1A2 (Homo sapiens, UniProt P05177)
# Sequence (P05177 whole entry): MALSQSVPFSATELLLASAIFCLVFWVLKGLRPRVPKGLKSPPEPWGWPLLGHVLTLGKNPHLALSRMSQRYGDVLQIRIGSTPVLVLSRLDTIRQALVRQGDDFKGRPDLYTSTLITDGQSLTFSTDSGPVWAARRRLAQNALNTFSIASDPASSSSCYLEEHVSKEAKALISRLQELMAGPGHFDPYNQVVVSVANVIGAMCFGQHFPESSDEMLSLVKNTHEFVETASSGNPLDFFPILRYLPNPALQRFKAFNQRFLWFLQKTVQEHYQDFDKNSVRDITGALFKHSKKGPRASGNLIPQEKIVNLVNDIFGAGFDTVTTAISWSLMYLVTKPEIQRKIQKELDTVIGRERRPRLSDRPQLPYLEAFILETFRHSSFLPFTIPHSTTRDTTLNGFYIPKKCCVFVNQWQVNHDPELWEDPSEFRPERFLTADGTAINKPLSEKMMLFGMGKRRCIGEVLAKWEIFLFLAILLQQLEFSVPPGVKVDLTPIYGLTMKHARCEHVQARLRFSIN
# Assay Summary: CYP inhibition in human liver microsomes
# Settings: human, human liver microsomes, probe phenacetin
Answer as a quantity: numeral, then unit.

CCc1cc(Cl)c(OC)c(N2CCN(CC(O)CCNC(=O)c3cc4ccccc4[nH]3)CC2)c1 (centres unmarked); 95.7%

Now for the compound whose activity at 20 min, 3 µM we want.
[in] Lab note: need activity at 20 min, 3 µM with CYP1A2 (Homo sapiens, UniProt P05177) for entry "Nc1ccc(S(=O)(=O)Nc2ccnn2-c2ccccc2)cc1" , please look it up.
[out] 98.1%

----------
# Assay Summary: Metabolic stability in liver microsomes
# Settings: dog, liver microsomes, pH 7.4
Endpoint: remaining at 1 h, 10 μM (%)
The reply should be a number in %, with the unit left off.

[in] Give its remaining at 1 h, 10 μM value. Item: CCc1cc(Cl)c(OC)c(N2CCN(CC(O)CCNC(=O)c3cc4ccccc4[nH]3)CC2)c1 (stereo not shown)
[out] 64.5

----------
# Tested on: CYP2B6 mRNA
# Assay Summary: CYP induction, mRNA, primary cultured human hepatocytes
# Settings: primary cultured human hepatocytes, Fold Induction (CYP2B6 mRNA expression), hepatocyte Lot 348B, 0.01 µM
Endpoint: fold induction at 48 h, 0.01 µM

[in] Give its fold induction at 48 h, 0.01 µM value. Item: CCc1cc(Cl)c(OC)c(N2CCN(CC(O)CCNC(=O)c3cc4ccccc4[nH]3)CC2)c1 (stereo not shown) [R-VK4-116]
[out] 0.98

----------
# Assay Summary: Metabolic stability in liver microsomes
# Settings: monkey, liver microsomes, pH 7.4
Endpoint: remaining at 1.5 h, 10 μM (%)
The reply should be a number in %, with the unit left off.

[in] Give its remaining at 1.5 h, 10 μM value. Item: CCc1cc(Cl)c(OC)c(N2CCN(CC(O)CCNC(=O)c3cc4ccccc4[nH]3)CC2)c1 (stereo not shown) [R-VK4-116]
[out] 42.1

----------
# Target Or System: BCRP (Homo sapiens, UniProt Q9UNQ0)
# Construct: expressed in transfected cells; host or cells: MDCK-II cells
# Sequence (Q9UNQ0 whole entry): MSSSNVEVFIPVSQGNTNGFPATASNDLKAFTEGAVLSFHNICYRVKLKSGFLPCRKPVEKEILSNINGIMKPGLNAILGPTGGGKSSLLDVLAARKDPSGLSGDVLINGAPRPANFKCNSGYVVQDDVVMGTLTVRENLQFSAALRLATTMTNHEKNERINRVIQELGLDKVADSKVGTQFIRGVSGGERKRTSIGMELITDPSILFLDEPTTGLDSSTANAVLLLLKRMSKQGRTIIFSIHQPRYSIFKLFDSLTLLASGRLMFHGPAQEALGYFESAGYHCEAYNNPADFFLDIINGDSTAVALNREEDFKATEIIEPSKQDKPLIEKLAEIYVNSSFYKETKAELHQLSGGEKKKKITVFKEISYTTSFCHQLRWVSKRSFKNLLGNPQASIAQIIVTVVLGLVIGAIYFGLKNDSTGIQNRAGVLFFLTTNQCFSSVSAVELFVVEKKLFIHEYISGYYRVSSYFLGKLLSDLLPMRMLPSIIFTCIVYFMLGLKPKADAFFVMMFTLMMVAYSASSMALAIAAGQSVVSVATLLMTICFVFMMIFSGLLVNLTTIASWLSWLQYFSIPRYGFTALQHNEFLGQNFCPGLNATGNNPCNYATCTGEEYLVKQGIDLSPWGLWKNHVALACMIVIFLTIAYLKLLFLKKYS
# Assay Summary: Transporter mediated assay (substrate/inhibitor), MDCK-II cells
# Type: in vitro ADME
# Settings: BCRP, substrate test, 2 µM
Endpoint: Papp B→A at 2 µM (×10⁻⁶ cm/s)
The reply should be a number in ×10⁻⁶ cm/s, with the unit left off.

[in] Give its Papp B→A at 2 µM value. Item: COc1cc2nc(N3CCN(C(=O)c4ccco4)CC3)nc(N)c2cc1OC [prazosin, reference compound]
[out] 47.7

----------
# Target Or System: CYP2B6 (Homo sapiens)
# Assay Summary: CYP inhibition in human liver microsomes
# Settings: human, human liver microsomes, probe bupropion
Endpoint: activity at 20 min, 0.1 µM
Answer as a quantity: numeral, then unit.

[in] Give its activity at 20 min, 0.1 µM value. Item: CCc1cc(Cl)c(OC)c(N2CCN(CC(O)CCNC(=O)c3cc4ccccc4[nH]3)CC2)c1 (stereo not shown)
[out] 99.6%

This collection of values is drawn from paper PMC11649115.
